Taken from ChEMBL document CHEMBL2434914.

Molecular target: Protein deacetylase HDAC6 (Homo sapiens, UniProt Q9UBN7)
Sequence (Q9UBN7 whole entry): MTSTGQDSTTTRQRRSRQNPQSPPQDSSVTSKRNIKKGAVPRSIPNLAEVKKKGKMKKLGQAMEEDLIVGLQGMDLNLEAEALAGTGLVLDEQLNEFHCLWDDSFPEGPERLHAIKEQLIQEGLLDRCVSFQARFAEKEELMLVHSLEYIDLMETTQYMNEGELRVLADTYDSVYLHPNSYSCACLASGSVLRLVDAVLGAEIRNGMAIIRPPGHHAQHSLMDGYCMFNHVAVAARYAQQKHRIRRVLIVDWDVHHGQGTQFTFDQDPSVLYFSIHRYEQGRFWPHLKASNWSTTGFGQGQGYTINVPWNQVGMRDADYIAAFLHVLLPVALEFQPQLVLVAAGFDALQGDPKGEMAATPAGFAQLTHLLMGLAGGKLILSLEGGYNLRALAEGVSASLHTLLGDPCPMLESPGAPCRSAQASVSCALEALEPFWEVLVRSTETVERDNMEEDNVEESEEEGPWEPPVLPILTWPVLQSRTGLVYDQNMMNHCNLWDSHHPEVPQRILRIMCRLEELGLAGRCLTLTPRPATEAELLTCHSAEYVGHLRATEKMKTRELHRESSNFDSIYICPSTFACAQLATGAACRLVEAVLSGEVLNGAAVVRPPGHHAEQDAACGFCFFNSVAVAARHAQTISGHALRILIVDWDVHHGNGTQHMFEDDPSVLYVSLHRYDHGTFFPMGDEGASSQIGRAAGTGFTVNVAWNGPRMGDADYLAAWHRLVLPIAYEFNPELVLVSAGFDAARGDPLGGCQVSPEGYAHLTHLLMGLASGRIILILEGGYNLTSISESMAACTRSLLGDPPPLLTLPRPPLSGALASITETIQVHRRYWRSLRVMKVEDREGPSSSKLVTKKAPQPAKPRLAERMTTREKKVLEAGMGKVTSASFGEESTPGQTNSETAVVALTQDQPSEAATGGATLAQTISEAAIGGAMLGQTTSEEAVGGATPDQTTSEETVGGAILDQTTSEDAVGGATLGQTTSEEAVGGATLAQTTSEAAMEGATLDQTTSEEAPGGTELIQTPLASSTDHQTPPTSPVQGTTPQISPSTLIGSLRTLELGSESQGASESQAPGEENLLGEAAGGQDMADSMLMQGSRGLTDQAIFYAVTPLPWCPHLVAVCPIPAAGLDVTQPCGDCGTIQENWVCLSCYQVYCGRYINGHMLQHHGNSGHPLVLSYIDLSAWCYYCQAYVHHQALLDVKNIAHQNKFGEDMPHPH
outcome-measure: IC50 (nM)
Write it as a number; the unit nM goes unstated.

Query: Fill in the blank: the reported IC50 of CC(C)[C@@H]1NC(=O)[C@]2(C)CSC(=N2)c2coc(n2)CNC(=O)C[C@@H](/C=C/CCSSCC/C=C/[C@@H]2CC(=O)NCc3nc(co3)C3=N[C@@](C)(CS3)C(=O)N[C@@H](C(C)C)C(=O)O2)OC1=O is ____.
Response: 50
